Attribution: patent US11753408B2

ASSAY_SYSTEM: mTOR (Homo sapiens, UniProt P42345)
ASSAY_EXPLANATION: mTOR activity (no method described)
Type: biochemical
READOUT_NAME: mTOR (µM)

Consider the worked cases shown below.
| COMPOUND | ASSAY_SYSTEM | mTOR / µM |
| --- | --- | --- |
| COc1cc(-c2ccc3ncc4ccc(=O)n(-c5ccc(C(=O)NC6CC6)cc5)c4c3c2)ccc1Cl | mTOR (Homo sapiens, UniProt P42345) | 1.504 |
| COc1cc(C(=O)NC2CC2)ccc1-n1c(=O)ccc2cnc3ccc(-c4ccc(F)cc4)cc3c21 | mTOR (Homo sapiens, UniProt P42345) | 7.201 |
| CN(C)Cc1ccc(-c2ccc3ncc4ccc(=O)n(-c5ccc(C(=O)N(C)C)cc5)c4c3c2)cc1 | mTOR (Homo sapiens, UniProt P42345) | 8.762 |
| O=C(c1ccc(-n2c(=O)ccc3cnc4ccc(-c5ccc(Cl)c(O)c5)cc4c32)cc1)N1CCOCC1 | mTOR (Homo sapiens, UniProt P42345) | 0.4313 |
| O=C(c1ccc(-n2c(=O)ccc3cnc4ccc(-c5ccc(Cl)cc5)cc4c32)cc1)N1CC2CCC(C1)O2 | mTOR (Homo sapiens, UniProt P42345) | 1.278 |

P: Cc1cc(C(=O)NCCCN2CCCCC2)ccc1-n1c(=O)ccc2cnc3ccc(-c4ccc(Cl)cc4)cc3c21
Q: O=C(c1ccc(-n2c(=O)ccc3cnc4ccc(-c5cccc(O)c5)cc4c32)cc1)N1CCOCC1
R: O=C(c1ccc(-n2c(=O)ccc3cnc4ccc(-c5cccc(CCN6CCCC6)c5)cc4c32)cc1)N1CCOCC1
S: Cc1ccc(C#N)cc1-n1c(=O)n(C)c2cnc3ccc(-c4ccc(F)c(C#N)c4)cc3c21
Request: # desc sort on mTOR across 4 compounds List the labels, following the order given in the request.
Response: S, R, P, Q

A: CC(O)c1ccc(-c2ccc3ncc4c(c3c2)n(-c2cccc(C#N)c2)c(=O)n4C)cc1 (centres unmarked)
B: COc1cc(C(=O)NCCN(C)C)ccc1-n1c(=O)ccc2cnc3ccc(-c4ccc(F)c(O)c4)cc3c21
C: CCn1c(=O)n(-c2cccc(C#N)c2)c2c3cc(-c4ccc(Cl)cc4)ccc3ncc21
D: CNC(=O)c1ccc(-n2c(=O)ccc3cnc4ccc(-c5ccc(Cl)cc5)cc4c32)c(C)c1
Request: # desc sort on mTOR across 4 compounds List the labels, following the order given in the request.
Response: C, B, D, A
(C: 100 µM, B: 8.154 µM, D: 3.581 µM, A: 0.3024 µM)

I: Cc1cc(C(=O)NCCCN2CCS(=O)(=O)CC2)ccc1-n1c(=O)ccc2cnc3ccc(-c4ccc(Cl)cc4)cc3c21
II: CNC(=O)c1ccc(-n2c(=O)ccc3cnc4ccc(-c5ccc(Cl)cc5)cc4c32)cc1Cl
III: Cc1cc(C(=O)NCCN2CCCC2)ccc1-n1c(=O)ccc2cnc3ccc(-c4ccc(Cl)cc4)cc3c21
IV: O=C(c1ccc(-n2c(=O)ccc3cnc4ccc(-c5ccc(OC6CCNCC6)cc5)cc4c32)cc1)N1CCOCC1
V: O=C(NC1CC1)c1ccc(-n2c(=O)ccc3cnc4ccc(-c5ccc(CN6CCCC6)cc5)cc4c32)cc1
Request: Order the records, beginning with the lowest mTOR and ending with the highest. List the labels, following the order given in the request.
Response: II, IV, V, I, III
(II: 0.2294 µM, IV: 3.288 µM, V: 6.306 µM, I: 9.216 µM, III: 23.74 µM)

P: O=C(NC1CC1)c1ccc(-n2c(=O)ccc3cnc4ccc(-c5ccc(Cl)cc5)nc4c32)cc1
Q: Nc1cc(-c2ccc3ncc4ccc(=O)n(-c5ccc(C(=O)NC6CC6)cc5)c4c3c2)ccc1Cl
R: COc1cc(C(=O)N2CCOCC2)ccc1-n1c(=O)ccc2cnc3ccc(-c4ccc(F)cc4)cc3c21
S: Cc1cc(C(=O)NCCCN2CCC(C)CC2)ccc1-n1c(=O)ccc2cnc3ccc(-c4ccc(Cl)cc4)cc3c21
T: Cc1ccc(C#N)cc1-n1c(=O)n(C)c2cnc3ccc(-c4cccc(S(N)(=O)=O)c4)cc3c21
Request: Order the records, beginning with the lowest mTOR and ending with the highest. List the labels, following the order given in the request.
Response: Q, P, T, S, R
(Q: 0.2148 µM, P: 0.4507 µM, T: 6.1 µM, S: 15.09 µM, R: 100 µM)

P: Cn1c(=O)n(-c2ccc(N3CCNCC3)c(C#N)c2)c2c3cc(-c4ccc(F)cc4)ccc3ncc21
Q: NCc1ccc(-c2ccc3ncc4ccc(=O)n(-c5ccc(C(=O)N6CCOCC6)cc5)c4c3c2)cc1
Request: I would appreciate it if you could say which entry, P or Q , has the lower mTOR value. Label of pick, please.
Response: P

P: O=C(NC1CNC1)c1ccc(-n2c(=O)ccc3cnc4ccc(-c5ccc(Cl)cc5)cc4c32)cc1
Q: CC(=O)N1CCN(c2cc(C)c(-n3c(=O)n(C)c4cnc5ccc(-c6ccc(Cl)cc6)cc5c43)cc2C#N)CC1
Request: I would appreciate it if you could say which entry, P or Q , has the lower mTOR value. Label of pick, please.
Response: P
(P: 1.065 µM, Q: 12.57 µM)
